# maps each entry to its IC50
testedSystem: UniProt:Q9BY41
protocolDescription: Continuous (one-step) KDAC8 enzyme activity assay, IC50 determination
Type: biochemical
Parameters: full-length human KDAC8 was produced in E. coli BL21 (DE3); His6-SUMO (N, cleaved yes); made in house; host or cells: E. coli BL21 (DE3), pET14b vector
measurementContext: 10 nmol/L KDAC8, 60 min pre-incubation at 30°C, 20 µmol/L Boc-Lys(TFA)-AMC, 0.1 mg/mL trypsin; mean ± SD, n = 3
Express the reported value numerically, then name its unit.

compound | testedSystem | IC50
CCN1C(=O)C=CC1=O [NEM, N-ethylmaleimide] | UniProt:Q9BY41 | 320 nM

[Q] // fetch IC50 given entry O=[N+]([O-])c1ccc(CCS(=O)(=O)c2nc(Cl)ns2)cc1 [TJ-19-29]
[A] 30 nM

###

testedSystem: human KDAC8 (Homo sapiens, UniProt Q9BY41)
protocolDescription: Two-step endpoint KDAC8 activity assay, IC50 determination
Type: biochemical
Design: full-length human KDAC8 was produced in E. coli BL21 (DE3); His6-SUMO (N, cleaved yes); made in house; host or cells: E. coli BL21 (DE3), pET14b vector
measurementContext: 20 µmol/L Boc-Lys(TFA)-AMC, stopped with SATFMK, trypsin development, n = 3
# maps each entry to its IC50
Report the value in µM with no unit label.

molecule | numericReadout
O=[N+]([O-])c1ccc(CCS(=O)(=O)c2nc(Cl)ns2)cc1 | 0.12

[Q] // fetch IC50 given entry CCN1C(=O)C=CC1=O [NEM, N-ethylmaleimide]
[A] 0.78

###

testedSystem: human KDAC8 (Homo sapiens)
Sequence (Q9BY41 1-377): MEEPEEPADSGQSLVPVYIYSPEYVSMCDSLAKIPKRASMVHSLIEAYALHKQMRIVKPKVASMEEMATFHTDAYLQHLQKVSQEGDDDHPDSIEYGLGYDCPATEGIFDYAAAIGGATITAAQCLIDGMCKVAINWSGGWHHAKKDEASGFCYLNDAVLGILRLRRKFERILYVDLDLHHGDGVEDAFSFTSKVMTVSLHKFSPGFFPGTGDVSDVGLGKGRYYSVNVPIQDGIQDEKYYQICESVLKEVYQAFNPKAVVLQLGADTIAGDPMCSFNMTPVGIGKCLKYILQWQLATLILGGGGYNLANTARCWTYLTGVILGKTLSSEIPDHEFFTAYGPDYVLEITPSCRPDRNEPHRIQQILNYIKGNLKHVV
protocolDescription: Continuous (one-step) KDAC8 enzyme activity assay, IC50 determination
Type: biochemical
Set-up: full-length human KDAC8 was produced in E. coli BL21 (DE3); His6-SUMO (N, cleaved yes); made in house; host or cells: E. coli BL21 (DE3), pET14b vector
measurementContext: classification of mode of action on KDAC8

compound | Inhibition mode
CCN1C(=O)C=CC1=O [NEM, N-ethylmaleimide] | Covalent inactivation
O=C(CCCCCCC(=O)Nc1ccccc1)NO [SAHA, suberoylanilide hydroxamic acid] | Fast reversible binding
O=[N+]([O-])c1ccc(CCS(=O)(=O)c2nc(Cl)ns2)cc1 | Covalent inactivation
CC(/C=C/C(=O)NO)=C\[C@H](C)C(=O)c1ccc(N(C)C)cc1 | Fast reversible binding
